- protocolText: Cytotoxicity against human MT4 cells assessed as reduction in cell viability incubated for 5 days by MTT assay
- Type: cell-based
- assaySetup: human, MT4 cells; time 5 day
measuredAttribute: CC50 at 120 h

Reference set (5 entries):
compound	CC50 at 120 h
COc1cc2cc(C#N)ccc2c(OC)c1Oc1cc(NCC2CCOCC2)nc(Nc2ccc(C#N)cc2)n1	> 125 µM
CCCNc1cc(Oc2c(OC)cc3cc(C#N)ccc3c2OC)nc(Nc2ccc(C#N)cc2)n1	> 125 µM
COc1cc2cc(C#N)ccc2c(OC)c1Oc1cc(NC2CC2)nc(Nc2ccc(C#N)cc2)n1	> 125 µM
COc1cc2cc(C#N)ccc2c(OC)c1Oc1cc(NC2CCCCC2)nc(Nc2ccc(C#N)cc2)n1	> 125 µM
COc1cc2cc(C#N)ccc2c(OC)c1Oc1cc(NCCCO)nc(Nc2ccc(C#N)cc2)n1	23.5 µM

Query block: Fill in CC50 at 120 h for record COc1cc2cc(C#N)ccc2c(OC)c1Oc1cc(NCC(C)C)nc(Nc2ccc(C#N)cc2)n1
Result block: > 125 µM

Query block: Answer with reported CC50 at 120 h of COc1cc2cc(C#N)ccc2c(OC)c1Oc1cc(NC2CCOCC2)nc(Nc2ccc(C#N)cc2)n1
Result block: > 125 µM

Query block: Supply measured CC50 at 120 h of COc1cc2cc(C#N)ccc2c(OC)c1Oc1cc(NC2CCOC2)nc(Nc2ccc(C#N)cc2)n1 (centres undefined) in your reply.
Result block: > 125 µM

---

- protocolText: Water solubility of compound at pH 2 at 0.1 to 10 mg by HPLC-UV analysis
- Format: physicochemical
- assaySetup: dose 0.1-10 mg
measuredAttribute: solubility

molecule	solubility
COc1cc2cc(C#N)ccc2c(OC)c1Oc1cc(N)nc(Nc2ccc(C#N)cc2)n1.O=C(O)CC(O)(CC(=O)O)C(=O)O	< 1 µg/mL
COc1cc2cc(C#N)ccc2c(OC)c1Oc1cc(N)nc(Nc2ccc(C#N)cc2)n1.O=S(=O)(O)O	< 1 µg/mL
COc1cc2cc(C#N)ccc2c(OC)c1Oc1cc(N)nc(Nc2ccc(C#N)cc2)n1.O=CO	1 µg/mL
CCNc1cc(Oc2c(OC)cc3cc(C#N)ccc3c2OC)nc(Nc2ccc(C#N)cc2)n1.Cc1ccc(S(=O)(=O)O)cc1	< 1 µg/mL

Query block: For the molecule CCNc1cc(Oc2c(OC)cc3cc(C#N)ccc3c2OC)nc(Nc2ccc(C#N)cc2)n1 , give its measured solubility value.
Result block: 1 µg/mL

Query block: Identify the reported solubility for the following entry. CCNc1cc(Oc2c(OC)cc3cc(C#N)ccc3c2OC)nc(Nc2ccc(C#N)cc2)n1.I
Result block: 1 µg/mL

Query block: Please supply the value of reported solubility for the item COc1cc2cc(C#N)ccc2c(OC)c1Oc1cc(N)nc(Nc2ccc(C#N)cc2)n1.O=C(O)/C=C\C(=O)O
Result block: 13 µg/mL

Query block: Fill in reported solubility for this entry: CC(=O)O.CCNc1cc(Oc2c(OC)cc3cc(C#N)ccc3c2OC)nc(Nc2ccc(C#N)cc2)n1
Result block: 1 µg/mL

Query block: Fill in solubility for record CCNc1cc(Oc2c(OC)cc3cc(C#N)ccc3c2OC)nc(Nc2ccc(C#N)cc2)n1.CS(=O)(=O)O
Result block: < 1 µg/mL

Query block: Provide one value: measured solubility of COc1cc2cc(C#N)ccc2c(OC)c1Oc1cc(N2CCC(O)C2)nc(Nc2ccc(C#N)cc2)n1.O=C(O)/C=C\C(=O)O (stereo not drawn)
Result block: < 1 µg/mL

Query block: For the molecule COc1cc2cc(C#N)ccc2c(OC)c1Oc1cc(N2CCC(O)C2)nc(Nc2ccc(C#N)cc2)n1.CS(=O)(=O)O (stereo not drawn) , give its measured solubility value.
Result block: < 1 µg/mL

---

- protocolText: Water solubility of compound at pH 7.4 at 0.1 to 10 mg by HPLC-UV analysis
- Format: physicochemical
- assaySetup: dose 0.1-10 mg
Please enter 1.0 where solubility is greater than or equal to 3 µg/mL, and 0.0 where it is lower.

Solved cases (2 shown):
compound	assignedClass
COc1cc2cc(C#N)ccc2c(OC)c1Oc1cc(N2CCC(O)C2)nc(Nc2ccc(C#N)cc2)n1 (stereo unspecified)	0.0
CCNc1cc(Oc2c(OC)cc3cc(C#N)ccc3c2OC)nc(Nc2ccc(C#N)cc2)n1.O=C(O)/C=C\C(=O)O	1.0

Query block: Could you tell me if the measured solubility of COc1cc2cc(C#N)ccc2c(OC)c1Oc1cc(N2CCC(O)C2)nc(Nc2ccc(C#N)cc2)n1.Cl (stereo unspecified) reaches 3 µg/mL or more?
Result block: 0.0

Query block: Check if solubility >= 3 µg/mL (inclusive). Item: COc1cc2cc(C#N)ccc2c(OC)c1Oc1cc(N)nc(Nc2ccc(C#N)cc2)n1.O=S(=O)(O)O
Result block: 1.0

Query block: Given Br.COc1cc2cc(C#N)ccc2c(OC)c1Oc1cc(N2CCC(O)C2)nc(Nc2ccc(C#N)cc2)n1 (stereo unspecified) , state whether its solubility is at least 3 µg/mL.
Result block: 0.0

Query block: Could you please find out whether COc1cc2cc(C#N)ccc2c(OC)c1Oc1cc(N)nc(Nc2ccc(C#N)cc2)n1.O=CO has solubility that meets 3 µg/mL or exceeds it?
Result block: 0.0

Query block: Is reported solubility greater than or equal to 3 µg/mL here: COc1cc2cc(C#N)ccc2c(OC)c1Oc1cc(N)nc(Nc2ccc(C#N)cc2)n1.Cl
Result block: 1.0

Query block: Is solubility for CCNc1cc(Oc2c(OC)cc3cc(C#N)ccc3c2OC)nc(Nc2ccc(C#N)cc2)n1 at or above 3 µg/mL?
Result block: 1.0

Query block: Confirm if solubility reported for the compound CCNc1cc(Oc2c(OC)cc3cc(C#N)ccc3c2OC)nc(Nc2ccc(C#N)cc2)n1.O=C(O)C(F)(F)F is 3 µg/mL or above.
Result block: 0.0

Query block: # check: solubility of COc1cc2cc(C#N)ccc2c(OC)c1Oc1cc(N2CCC(O)C2)nc(Nc2ccc(C#N)cc2)n1.Cc1ccc(S(=O)(=O)O)cc1 (stereo unspecified) is greater than or equal to 3 µg/mL
Result block: 1.0

---

Below, each of the compounds is paired with its reported Ratio EC50 value.
- protocolText: Resistance fold, ratio of EC50 for HIV1 harboring reverse transcriptase Y181C mutant […] to EC50 for wild type HIV1 […]
- Format: functional
Please give the numeric answer without any surrounding text.

Previously resolved entries follow.
compound	Ratio EC50
COc1cc2cc(C#N)ccc2c(OC)c1Oc1cc(NC2CCOCC2)nc(Nc2ccc(C#N)cc2)n1	23
COc1cc2cc(C#N)ccc2c(OC)c1Oc1cc(NC2CCC2)nc(Nc2ccc(C#N)cc2)n1	9
CCC(CC)Nc1cc(Oc2c(OC)cc3cc(C#N)ccc3c2OC)nc(Nc2ccc(C#N)cc2)n1	10
COc1cc2cc(C#N)ccc2c(OC)c1Oc1cc(NC2CCOC2)nc(Nc2ccc(C#N)cc2)n1 (centres undefined)	7
CCCC(C)Nc1cc(Oc2c(OC)cc3cc(C#N)ccc3c2OC)nc(Nc2ccc(C#N)cc2)n1 (centres undefined)	8
COc1cc2cc(C#N)ccc2c(OC)c1Oc1cc(N)nc(Nc2ccc(C#N)cc2)n1	3
COc1cc2cc(C#N)ccc2c(OC)c1Oc1cc(NCC(C)C)nc(Nc2ccc(C#N)cc2)n1	1253
COc1cc2cc(C#N)ccc2c(OC)c1Oc1cc(NC2CCCCC2)nc(Nc2ccc(C#N)cc2)n1	12

Okay, now this compound:
Query block: Give Ratio EC50 for Cc1cn([C@H]2C[C@H](N=[N+]=[N-])[C@@H](CO)O2)c(=O)[nH]c1=O [ZIDOVUDINE]
Result block: 1

---

- protocolText: Water solubility of compound at pH 2 at 0.1 to 10 mg by HPLC-UV analysis
- Type: physicochemical
- assaySetup: dose 0.1-10 mg
measuredAttribute: solubility (µg/mL)
I only need the number, in µg/mL, no unit after it.

Query block: Look up and report measured solubility for this entry: CCNc1cc(Oc2c(OC)cc3cc(C#N)ccc3c2OC)nc(Nc2ccc(C#N)cc2)n1.O=S(=O)(O)O
Result block: 9

Query block: State its solubility for this compound: CCNc1cc(Oc2c(OC)cc3cc(C#N)ccc3c2OC)nc(Nc2ccc(C#N)cc2)n1.O=C(O)C(O)C(O)C(=O)O
Result block: 1

---

In this section, each of the molecules is paired with its reported solubility.
- protocolText: Water solubility of compound at pH 7.4 at 0.1 to 10 mg by HPLC-UV analysis
- Type: physicochemical
- assaySetup: dose 0.1-10 mg
Form entry: value (µg/mL) — number only.

// below: answered molecules
molecule	solubility (µg/mL)
COc1cc2cc(C#N)ccc2c(OC)c1Oc1cc(N)nc(Nc2ccc(C#N)cc2)n1.CS(=O)(=O)O	11
COc1cc2cc(C#N)ccc2c(OC)c1Oc1cc(N)nc(Nc2ccc(C#N)cc2)n1.O=C(O)C(O)C(O)C(=O)O	29
CCNc1cc(Oc2c(OC)cc3cc(C#N)ccc3c2OC)nc(Nc2ccc(C#N)cc2)n1.Cl	11

Read the next record carefully.
Query block: Fill in solubility for record COc1cc2cc(C#N)ccc2c(OC)c1Oc1cc(N2CCC(O)C2)nc(Nc2ccc(C#N)cc2)n1.O=C(O)/C=C\C(=O)O (centres undefined)
Result block: 5

The measurements presented in this section are drawn from ChEMBL document CHEMBL5036347.
